These measurements were taken from ChEMBL document CHEMBL1961873.

molecular target: Ribosomal protein S6 kinase alpha-4 (Homo sapiens) (UniProt O75676); conditions: at 0.1 µM;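 also: values are mean inhibition of MSK2, from GSK PKIS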
Sequence (O75676 whole entry, looked up): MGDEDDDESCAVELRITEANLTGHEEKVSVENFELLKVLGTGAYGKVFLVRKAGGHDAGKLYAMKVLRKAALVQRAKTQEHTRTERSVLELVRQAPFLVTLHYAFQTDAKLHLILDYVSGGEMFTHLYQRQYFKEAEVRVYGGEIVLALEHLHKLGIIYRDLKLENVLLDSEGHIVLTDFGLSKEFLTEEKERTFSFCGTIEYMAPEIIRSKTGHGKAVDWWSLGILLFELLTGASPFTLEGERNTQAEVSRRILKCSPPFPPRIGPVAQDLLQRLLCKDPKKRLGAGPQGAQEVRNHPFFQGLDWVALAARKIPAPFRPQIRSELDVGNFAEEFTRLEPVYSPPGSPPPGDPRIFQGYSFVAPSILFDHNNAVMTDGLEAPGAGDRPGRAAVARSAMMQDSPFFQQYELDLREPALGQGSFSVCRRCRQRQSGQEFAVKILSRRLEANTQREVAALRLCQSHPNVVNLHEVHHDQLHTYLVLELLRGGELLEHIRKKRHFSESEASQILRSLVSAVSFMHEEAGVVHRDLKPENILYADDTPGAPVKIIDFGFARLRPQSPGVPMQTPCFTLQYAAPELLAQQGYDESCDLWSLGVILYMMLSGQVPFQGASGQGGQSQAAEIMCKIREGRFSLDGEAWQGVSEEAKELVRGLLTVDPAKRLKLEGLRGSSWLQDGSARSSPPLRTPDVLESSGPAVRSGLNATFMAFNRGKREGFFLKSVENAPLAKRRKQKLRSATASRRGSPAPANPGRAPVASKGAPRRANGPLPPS
Measured inhibition determines class: low bracket (below 1%), middle bracket (1% to below 2%), high bracket (2% or more)

Data request: Which category fits this record: Fc1ccc(-c2nc3n(c2-c2ccncc2)CCS3)cc1
Data returned: middle bracket

Data request: Continue with COc1cc(C)c(N(C)C(=O)CN(C)C)cc1Nc1nc(Nc2cccc(F)c2C(N)=O)c2cc[nH]c2n1
Data returned: middle bracket

Data request: Continue with Cc1ccc(C(=O)NC2CCC2)cc1-c1ccc(C(=O)NCC2CC2)cc1
Data returned: middle bracket

Data request: Continue with O=C1Nc2ccc(I)cc2C1=Cc1cc(Br)c(O)c(Br)c1
Data returned: high bracket

Data request: Continue with COc1cc2ncn(-c3cc(OCCc4ccccc4)c(C(N)=O)s3)c2cc1OC
Data returned: low bracket

Data request: Continue with c1ccc(Oc2ccc(Nc3ncc(-c4ccccc4)o3)cc2)cc1
Data returned: middle bracket

Data request: Continue with C#Cc1cccc(Nc2ncnc3ccc(OCCCCNCCS(C)(=O)=O)cc23)c1
Data returned: high bracket

Data request: Continue with COc1cc(Nc2ncc3c(C)nc(-c4cccc(Oc5ccccc5)c4)n3n2)cc(OC)c1OC
Data returned: low bracket

Data request: Continue with C[C@@H](Oc1cc(-n2cnc3ccc(OC4CCN(C)CC4)cc32)sc1C(N)=O)c1ccccc1Cl
Data returned: high bracket

Data request: Continue with COc1cc2ncn(-c3cc(OCc4ccccc4C(F)(F)F)c(C(C)=O)s3)c2cc1OC
Data returned: middle bracket
